test system: HepG2; assay: Antiproliferative activity against human HepG2 cells assessed as cell growth inhibition measured after 48 hrs by MTT assay; assay type: functional, cell-based; conditions: HepG2, 48 h
Property: pIC50; scope: individual molecules
Bear in mind: pIC50 is minus log10 of a mol/L concentration; give just that figure.

MOLECULAR_STRING | pIC50
O=C1c2ccccc2-c2cccc3ccnc1c23 | 4.91

Data request: Query pIC50 for `O=C1c2ccccc2-c2ccc([N+](=O)[O-])c3ccnc1c23`
Data returned: 5.89

Data request: Query pIC50 for `COc1ccc2c3c(nccc13)C(=O)c1cc(O)ccc1-2`
Data returned: 4.47

Data request: Query pIC50 for `COc1cc2c3c(nccc3c1OC)C(=O)c1cc(O)ccc1-2`
Data returned: 4.43

====

Property: pIC50; scope: individual molecules
system: HepG2; experiment: Antiproliferative activity against human HepG2 cells assessed as cell growth inhibition measured after 48 hrs by MTT assay; assay type: functional, cell-based; settings: HepG2, 48 h
Bear in mind: pIC50 is minus log10 of a mol/L concentration; give just that figure.

# count of solved cases: 2
MOLECULAR_STRING | pIC50
COc1cc2c(cc1OC)-c1cccc3ccnc(c13)C2=O | 4.44
COc1ccc2c(c1)C(=O)c1nccc3cccc-2c13 | 5.14

Proceed to the following item.
Data request: Query pIC50 for `COc1cc2c3c(nccc3c1OC)C(=O)c1ccccc1-2`
Data returned: 4.46

====

tested on: WI-38; experiment: Antiproliferative activity against human WI-38 cells assessed as cell growth inhibition measured after 48 hrs by MTT assay; assay type: functional, cell-based; conditions: WI-38, 48 h
Property: pIC50; scope: individual molecules
Bear in mind: pIC50 is minus log10 of a mol/L concentration; give just that figure.

MOLECULAR_STRING | pIC50
COc1cc2c3c(nccc3c1OC)C(=O)c1ccccc1-2 | 4.53
COc1cc2c(cc1OC)-c1cccc3ccnc(c13)C2=O | 4.42

Proceed to the following item.
Data request: Query pIC50 for `COc1cc2ccnc3c2c(c1OC)-c1ccccc1C3=O`
Data returned: 5.17

====

system: HepG2; assay: Antiproliferative activity against human HepG2 cells assessed as cell growth inhibition measured after 48 hrs by MTT assay; format: functional, cell-based; details: HepG2, 48 h
MEASURED_PARAMETER: pIC50
Bear in mind: pIC50 is minus log10 of a mol/L concentration; give just that figure.

# count of solved cases: 9
MOLECULAR_STRING | pIC50
COc1ccc2c3c(nccc13)C(=O)c1ccccc1-2 | 4.89
Cc1ccc2c(c1)-c1cccc3ccnc(c13)C2=O | 4.52
O=c1[nH]cc(F)c(=O)[nH]1 | 4.69
O=C1c2ccc(F)cc2-c2cccc3ccnc1c23 | 4.56
O=C1c2cc(Cl)ccc2-c2cccc3ccnc1c23 | 4.82
COc1ccc2c(c1)-c1cccc3ccnc(c13)C2=O | 4.71
O=C1c2cc([N+](=O)[O-])ccc2-c2ccc([N+](=O)[O-])c3ccnc1c23 | 5.66
COc1ccc2c3c(nccc13)C(=O)c1cc(OCc3ccccc3)ccc1-2 | 4.59
Cc1ccc2c(c1)C(=O)c1nccc3cccc-2c13 | 4.88

Proceed to the following item.
Data request: Query pIC50 for `O=C1c2c(F)cccc2-c2cccc3ccnc1c23`
Data returned: 4.52

Reference for the values: ChEMBL document CHEMBL5131473
